Cited source for all entries: ChEMBL document CHEMBL1961873

testTarget: Serine/threonine-protein kinase Sgk2 (Homo sapiens) (UniProt Q9HBY8)
Sequence (Q9HBY8 whole entry): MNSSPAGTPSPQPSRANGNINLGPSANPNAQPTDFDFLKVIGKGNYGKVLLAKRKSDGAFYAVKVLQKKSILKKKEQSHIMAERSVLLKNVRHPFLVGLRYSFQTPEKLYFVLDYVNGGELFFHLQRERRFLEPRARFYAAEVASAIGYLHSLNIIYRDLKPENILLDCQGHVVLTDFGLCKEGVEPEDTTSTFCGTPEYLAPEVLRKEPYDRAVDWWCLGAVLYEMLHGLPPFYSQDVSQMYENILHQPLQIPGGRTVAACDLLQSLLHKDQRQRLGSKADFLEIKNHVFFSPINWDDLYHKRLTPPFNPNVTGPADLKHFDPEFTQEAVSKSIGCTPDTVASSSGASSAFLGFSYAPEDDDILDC
experimentalSetup: at 0.1 µM
Could you please report measured inhibition for the items listed next?
Only the number, expressed in %, is required.

Q: Enter inhibition (test system Serine/threonine-protein kinase Sgk2 (Homo sapiens) (UniProt Q9HBY8)) for CS(=O)(=O)Nc1ccc(-c2ccc3c(NC(=O)C4CC4)n[nH]c3c2)cc1
A: 0.2

Q: Enter inhibition (test system Serine/threonine-protein kinase Sgk2 (Homo sapiens) (UniProt Q9HBY8)) for COc1ccccc1-c1cc(/C=C2\C(=O)Nc3ncc(Br)cc32)cc(Br)c1O
A: 3.23

Q: Enter inhibition (test system Serine/threonine-protein kinase Sgk2 (Homo sapiens) (UniProt Q9HBY8)) for COc1cc(Nc2ncc(-c3ccccc3)o2)cc(OC)c1
A: 3.93

Q: Enter inhibition (test system Serine/threonine-protein kinase Sgk2 (Homo sapiens) (UniProt Q9HBY8)) for Cc1c2ccc(N(C)c3ccnc(Nc4cccc(S(N)(=O)=O)c4)n3)cc2nn1C
A: 2.67

Q: Enter inhibition (test system Serine/threonine-protein kinase Sgk2 (Homo sapiens) (UniProt Q9HBY8)) for NS(=O)(=O)c1ccc(N/N=C2\C(=O)Nc3ccc(C(=O)NCc4ccncc4)cc32)cc1
A: 0.65

Q: Enter inhibition (test system Serine/threonine-protein kinase Sgk2 (Homo sapiens) (UniProt Q9HBY8)) for CN(C)CCNC(=O)Nc1ccc(N(C)c2ccnc(Nc3ccc(CS(C)(=O)=O)cc3)n2)cc1
A: 0.71

Q: Enter inhibition (test system Serine/threonine-protein kinase Sgk2 (Homo sapiens) (UniProt Q9HBY8)) for NS(=O)(=O)c1ccc(N/N=C2\C(=O)Nc3cccc(CCc4ccncc4)c32)cc1
A: 3.09

Q: Enter inhibition (test system Serine/threonine-protein kinase Sgk2 (Homo sapiens) (UniProt Q9HBY8)) for Cc1ccc(-c2cc3c(NC(=O)C4CC4)ncnc3o2)cc1;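 note: each value is a mean percent inhibition of SGK2 from the GSK PKIS kinase screen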
A: 5.33
